meta.source: patent US20090253704A1

targetOrSystem: Stearoyl-CoA desaturase (SCD) (Rattus norvegicus)
Sequence (P07308 whole entry): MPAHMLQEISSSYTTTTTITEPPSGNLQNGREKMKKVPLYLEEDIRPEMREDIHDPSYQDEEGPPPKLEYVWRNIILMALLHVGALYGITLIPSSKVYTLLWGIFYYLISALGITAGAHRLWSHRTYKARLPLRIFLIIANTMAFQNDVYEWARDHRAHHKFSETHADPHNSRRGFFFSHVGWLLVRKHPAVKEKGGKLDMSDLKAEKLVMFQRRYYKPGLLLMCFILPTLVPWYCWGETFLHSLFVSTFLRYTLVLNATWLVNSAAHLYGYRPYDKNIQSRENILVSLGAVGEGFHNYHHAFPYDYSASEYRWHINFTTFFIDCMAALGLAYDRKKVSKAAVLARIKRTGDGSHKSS
experimentalProtocol: SCD assay in rat liver microsomes ([3H]stearoyl CoA desaturation, adapted from Talamo and Bloch)
conditionsUsed: rat liver microsomes 0.2 mg/ml final, 30 min preincubation, 45 min reaction at room temperature
Lab note - cut at 300 nM for IC50: y if strictly below, n if not.

molecule=O=C(CO)Nc1cc2c(=O)n(CCCOc3cc(Cl)ccc3Cl)cnn2c1 targetorsystem="Stearoyl-CoA desaturase (SCD) (Rattus norvegicus)" assignedlabel=y
molecule=O=C(Nc1cc2c(=O)n(Cc3ccc(Cl)c(Cl)c3)cnn2c1)OCc1ccccc1 targetorsystem="Stearoyl-CoA desaturase (SCD) (Rattus norvegicus)" assignedlabel=n
molecule=O=C(CO)Nc1cc2c(=O)n(Cc3ccc(Cl)c(Cl)c3)cnn2c1 targetorsystem="Stearoyl-CoA desaturase (SCD) (Rattus norvegicus)" assignedlabel=y
molecule=O=C(CO)Nc1cc2c(=O)n(CCc3ccc(Cl)cc3)cnn2c1 targetorsystem="Stearoyl-CoA desaturase (SCD) (Rattus norvegicus)" assignedlabel=n
molecule=O=C(CO)Nc1cc2c(=O)n(CCOc3ccccc3Cl)cnn2c1 targetorsystem="Stearoyl-CoA desaturase (SCD) (Rattus norvegicus)" assignedlabel=n
molecule="O=C(Nc1cc2c(=O)n(CCc3ccc(Cl)cc3)cnn2c1)C(O)CO (stereo not drawn)" targetorsystem="Stearoyl-CoA desaturase (SCD) (Rattus norvegicus)" assignedlabel=n
molecule=O=C(CO)Nc1cc2c(=O)n(Cc3ccc(Cl)c(C(F)(F)F)c3)cnn2c1 targetorsystem="Stearoyl-CoA desaturase (SCD) (Rattus norvegicus)" assignedlabel=n
molecule="O=C(Nc1cc2c(=O)n(Cc3ccc(Cl)c(Cl)c3)cnn2c1)C(O)CO (stereo not drawn)" targetorsystem="Stearoyl-CoA desaturase (SCD) (Rattus norvegicus)" assignedlabel=y
molecule=CCCCCCC(=O)Nc1cc2c(=O)n(Cc3ccc(Cl)c(Cl)c3)cnn2c1 targetorsystem="Stearoyl-CoA desaturase (SCD) (Rattus norvegicus)" assignedlabel=n
